Provenance of the data: the supplement of paper PMC11908140

For each of the variants below, state its 8OG:A repair function score.
B1: library; numbered along this chain (parent)
chain: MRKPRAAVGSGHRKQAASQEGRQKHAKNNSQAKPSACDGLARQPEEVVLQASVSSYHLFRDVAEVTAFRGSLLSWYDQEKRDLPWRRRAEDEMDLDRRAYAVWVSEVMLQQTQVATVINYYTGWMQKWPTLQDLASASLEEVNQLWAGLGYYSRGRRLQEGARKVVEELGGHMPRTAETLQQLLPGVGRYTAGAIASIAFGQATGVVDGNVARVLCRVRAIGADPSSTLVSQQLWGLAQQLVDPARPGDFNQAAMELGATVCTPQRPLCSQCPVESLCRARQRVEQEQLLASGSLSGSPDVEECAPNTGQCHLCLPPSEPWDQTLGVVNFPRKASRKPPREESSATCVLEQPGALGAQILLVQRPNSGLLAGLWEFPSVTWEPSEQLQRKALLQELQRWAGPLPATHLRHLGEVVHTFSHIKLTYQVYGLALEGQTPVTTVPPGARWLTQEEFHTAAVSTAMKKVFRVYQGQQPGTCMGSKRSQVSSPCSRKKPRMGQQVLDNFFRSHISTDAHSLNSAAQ

variants of: B1; assay: 8OG:A repair function score (normalized; synonymous = 0, nonsense = -1) (normalized log-likelihood score); higher = more repair activity (WT-like); conditions: with 8OG:A DNA repair reporter (GFP) in HEK-293 MUTYH KO cells;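 note: cells sorted at 72 h after reporter transfection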
Just the number, please, no unit attached.

Output 8OG:A repair function score of F418R
-0.722

Specify 8OG:A repair function score for R491G and stop.
0.00614

Supply 8OG:A repair function score value. Item: L373N
-0.777

Please give measured 8OG:A repair function score of the following entry: P352W
-0.38
